Test system: UACC-257
test description: NCI tumour cell line growth inhibition, 48 h
Activity calls are given as the source filed them. No stated cut-off is given here; in the data, active = GI50 up to about 1.1 µM and inactive = higher.
Outcomes: active, inactive

molecule	assigned class
CC1=NN(c2nc(N)nc(C/C(N)=N/O)n2)C(C)(C)C1	inactive
CC(C)C(CC(=O)OCC(CO)OC(=O)CC(C(C)C)C(C)C)C(C)C (stereo not drawn)	inactive
COc1ccc(COCC(Cn2ccnc2)OCc2ccc(C(=O)O)cc2)cc1 (stereo not drawn)	inactive
CCOC(CN(C)C(=O)Nc1cccc2ccccc12)OCC	inactive
COC1(c2ccc(Cl)cc2)SC=C(C)n2c1noc2=O (stereo not drawn)	inactive
O=C1C(O)=C(CCCc2ccc(Oc3ccccc3)cc2)C(=O)c2ccccc21	inactive
NCCCCc1cc(O)c2c(c1O)C(=O)c1ccccc1C2=O	inactive
COc1cccc2c1C(=O)c1c(O)c3c(c(O)c1C2=O)C[C@@](O)(C(=O)CO)CC3OC1CC(N(C)CCOCC(OC(C)=O)OC(C)=O)C(O)C(C)O1 (stereo partly drawn)	active
O=c1c2ccccc2c(=O)n2n1-c1cccc(c1)CSSCc1cccc-2c1	inactive
O=C(CC1C(=O)Nc2ccccc2[S+]1[O-])Nc1ccc(Cl)cc1 (stereo not drawn)	inactive
NC(=O)c1nnsc1NN=O	inactive
O=C1CC(c2ccc[nH]2)=NN1c1ccccc1	inactive
CCOP(=O)(OCC)c1cc(-c2ccccc2)ccc1N	inactive

----------
Tested on: A549
test description: NCI tumour cell line growth inhibition, 48 h
The source made the active and inactive calls. Rule as the data show it: active = GI50 up to about 1.1 µM and inactive = higher.
Outcomes: active, inactive

compound	assigned class
COC1(c2ccc(Cl)cc2)SC=C(C)n2c1noc2=O (stereo not given)	inactive
CCN(CC)CCC(=O)OC1C(C)=CC(C)C(=O)CC(C(C)CC2CCC(O)C(OC)C2)OC(=O)C2CCCCN2C(=O)C(=O)[C@@]2(O)OC(CCC2C)CC(OC)\C(C)=C/C=C/C=C/C(C)CC(C)C(=O)C1OC (stereo not given in full)	active
Clc1ccc(OCc2nnc(CCCCCCCCc3nnc(COc4ccc(Cl)cc4Cl)o3)o2)c(Cl)c1	inactive
C[C@]12CCCC(=O)C1(O)C[C@H](C(=O)O)CC2 (stereo not given in full)	inactive
CN(C)C(=C1c2cc([N+](=O)[O-])ccc2-c2ccc([N+](=O)[O-])cc21)N(C)C	inactive

----------
System: SN12C
test description: NCI tumour cell line growth inhibition, 48 h
The source made the active and inactive calls. No stated cut-off is given here; in the data, active = GI50 up to about 1.1 µM and inactive = higher.
attribute measured: GI50

compound	assay value
CCN(CC)C(=S)N/N=C(\C)c1ccccc1O	20.9 µM (inactive)
CC(C)(C)c1cc(CCC(=O)Nc2ccc(Cl)cc2Cl)nc(N)n1	> 100 µM (inactive)
O=C(NC(Cc1ccc(I)cc1)C(=O)O)c1ccc(Br)cc1 (stereo unspecified)	> 100 µM (inactive)
O=C1[C@@H]2C(c3c(Cl)cccc3Cl)=NO[C@@H]2C(=O)N1c1ccc(Cc2ccc(N3C(=O)[C@H]4C(c5c(Cl)cccc5Cl)=NO[C@H]4C3=O)cc2)cc1	> 100 µM (inactive)
O=C(O)C1=C(C(=O)Nc2ccccc2)C2C=CC1C2 (stereo unspecified)	> 100 µM (inactive)
O=C(O)C(=Cc1ccc(-c2ccccc2)cc1)C(=O)O	11.5 µM (inactive)
Cn1c2ccccc2n2c3ncccc3c(=O)cc12	44.7 µM (inactive)
Cc1nc2c(o1)C(=O)c1ccccc1/C2=N/c1ccccn1	24.9 µM (inactive)
CCOC(=O)Cc1ccc(Nc2nc3cc(F)c(F)cc3nc2C(=O)OCC)cc1	74.5 µM (inactive)
Cc1ccc(S(=O)(=O)NC(=O)NC(CO)C(=O)O)cc1 (stereo unspecified)	> 100 µM (inactive)
CC1CCCC(C(=O)/C(=C/c2cccc(Cl)c2)C(=O)C(=O)O)C1 (stereo unspecified)	72.1 µM (inactive)
N#CC1([N+](=O)[O-])C=C1c1ccccc1 (stereo unspecified)	> 100 µM (inactive)
Cn1c2n/c(=N\c3ccc(Cl)cc3)[n+]3ccc4ccccc4c3c-2c([O-])n1-c1ccccc1	> 100 µM (inactive)
COc1ccc(OC)c2c1C(=O)C1CC1(Br)C2=O (stereo unspecified)	> 100 µM (inactive)
Cc1cccc2c1[C@]13OC(C)[C@]4(C)CC5OC(=O)[C@@]1(C)[C@@H]5[C@]34C(=O)O2 (stereo partly specified)	> 100 µM (inactive)
CC(=O)C1Cn2c(nc3ccccc32)C[Se]1 (stereo unspecified)	4.43 µM (inactive)
